Test: physchem
Conditions: bicarbonate buffer
experimental-readout: remaining at 24 h, 5000 µM

N=C1Sc2ccccc2C2=NCCCN12 | < 5%
Cc1cccc2c1C1=NCCN1C(=S)S2 | > 95%
S=C1Sc2cc(Br)ccc2C2=NCCCN12 | > 95%

Exercise: Given Fc1ccc2c(c1)C1=NCCN1C(=S)S2 , state its recorded remaining at 24 h, 5000 µM.
Solution: > 95%
